Each record here notes measured Emax.
target: human Oxytocin (OTR) receptor (Homo sapiens); construct: expressed in transfected cells; assay: Calcium flux assay (FLIPR), agonist mode, CHO cells expressing human OTR; assay type: cell-based; details: CHO; maximum response normalized to endogenous full agonist = 100%; read-out: hOT efficacy (%)
Positions of bridges follow the written chain, without caps; N, C: chain ends. Non-standard residues stand in square brackets, D forms with d. Residues, ends and D or L forms follow the SMILES beside them. Hyp = O=C(O)[C@@H]1C[C@@H](O)CN1; Ac5c = NC1(C(=O)O)CCCC1; Sar = CNCC(=O)O

# compound, Emax
rows = [
    ("CC[C@H](C)[C@@H]1NC(=O)[C@H](Cc2ccc(O)cc2)NC(=O)CNC(=O)CC[C@@H](C(=O)N2C[C@H](O)C[C@H]2C(=O)N[C@@H](CC(C)C)C(=O)NCC(N)=O)NC(=O)[C@H](CC(N)=O)NC(=O)[C@H](CCC(N)=O)NC1=O [Example 45] (GYIQNE[Hyp]LG-NH2; lactam N-6)", "113%"),
    ("CC[C@H](C)[C@@H]1NC(=O)[C@H](Cc2ccc(O)cc2)NC(=O)CNC(=O)CC[C@@H](C(=O)N(C)CC(=O)N[C@@H](Cc2c[nH]c3ccccc23)C(=O)NCC(N)=O)NC(=O)[C@H](CC(N)=O)NC(=O)[C@H](CCC(N)=O)NC1=O [Example 38] (GYIQNE[Sar]WG-NH2; lactam N-6)", "126%"),
    ("CC[C@H](C)[C@@H]1NC(=O)[C@H](Cc2ccc(O)cc2)NC(=O)CNC(=O)CC[C@@H](C(=O)N(C)CC(=O)NC2(C(=O)NCC(N)=O)CCCC2)NC(=O)[C@H](CC(N)=O)NC(=O)[C@H](CCC(N)=O)NC1=O [Example 48] (GYIQNE[Sar][Ac5c]G-NH2; lactam N-6)", "108%"),
]

====

Entries annotated with measured pEC50
target: human V2 receptor (Homo sapiens, UniProt P30518); construct: expressed in transfected cells; test: Calcium flux assay (FLIPR), agonist mode, CHO cells expressing human V2 + Gqs5; format: cell-based; details: CHO cells stably expressing human V2 + chimeric Gqs5; calcium flux; read-out: hV2 EC50
Sequence (P30518 whole entry): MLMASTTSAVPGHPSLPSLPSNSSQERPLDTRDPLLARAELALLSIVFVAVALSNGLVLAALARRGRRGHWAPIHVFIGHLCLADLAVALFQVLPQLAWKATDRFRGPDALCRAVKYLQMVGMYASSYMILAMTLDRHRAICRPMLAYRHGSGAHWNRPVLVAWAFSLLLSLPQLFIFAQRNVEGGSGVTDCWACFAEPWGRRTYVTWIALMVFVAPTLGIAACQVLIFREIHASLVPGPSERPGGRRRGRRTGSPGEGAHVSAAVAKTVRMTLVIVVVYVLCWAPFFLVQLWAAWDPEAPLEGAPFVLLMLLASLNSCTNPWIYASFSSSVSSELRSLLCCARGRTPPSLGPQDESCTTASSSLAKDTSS
pEC50: −log10 of the molar value. Positions of bridges follow the written chain, without caps; N, C: chain ends. Non-standard residues stand in square brackets, D forms with d. Residues, ends and D or L forms follow the SMILES beside them. Tle = CC(C)(C)[C@H](N)C(=O)O; Dab = NCC[C@H](N)C(=O)O; Sar = CNCC(=O)O

# molecule, pEC50
rows = [
    ("CC[C@H](C)[C@@H]1NC(=O)[C@H](Cc2ccc(O)cc2)NC(=O)CNC(=O)CC[C@@H](C(=O)N(C)CC(=O)N[C@@H](Cc2ccccc2)C(=O)NCC(N)=O)NC(=O)[C@H](CC(N)=O)NC(=O)[C@H](CCC(N)=O)NC1=O [Example 27] (GYIQNE[Sar]FG-NH2; lactam N-6)", 5.82),
    ("CC[C@H](C)[C@@H]1NC(=O)[C@H](Cc2ccc(O)cc2)NC(=O)CNC(=O)CC[C@@H](C(=O)N(C)CC(=O)N[C@@H](CCN)C(=O)NCC(N)=O)NC(=O)[C@H](CC(N)=O)NC(=O)[C@H](CCC(N)=O)NC1=O [Example 30] (GYIQNE[Sar][Dab]G-NH2; lactam N-6)", 6.85),
    ("CC[C@H](C)[C@@H]1NC(=O)[C@H](Cc2ccc(O)cc2)NC(=O)CNC(=O)CC[C@@H](C(=O)N(C)CC(=O)N[C@H](C(=O)NCC(N)=O)C(C)C)NC(=O)[C@H](CC(N)=O)NC(=O)[C@H](CCC(N)=O)NC1=O [Example 26] (GYIQNE[Sar]VG-NH2; lactam N-6)", 5.58),
    ("CC[C@H](C)[C@@H]1NC(=O)[C@H](Cc2ccc(O)cc2)NC(=O)CNC(=O)CC[C@@H](C(=O)N(C)CC(=O)N[C@H](C(=O)NCC(N)=O)C(C)(C)C)NC(=O)[C@H](CC(N)=O)NC(=O)[C@H](CCC(N)=O)NC1=O [Example 44] (GYIQNE[Sar][Tle]G-NH2; lactam N-6)", 5.91),
]

====

Target: human Oxytocin (OTR) receptor (Homo sapiens, UniProt P30559)
Sequence (P30559 1-389): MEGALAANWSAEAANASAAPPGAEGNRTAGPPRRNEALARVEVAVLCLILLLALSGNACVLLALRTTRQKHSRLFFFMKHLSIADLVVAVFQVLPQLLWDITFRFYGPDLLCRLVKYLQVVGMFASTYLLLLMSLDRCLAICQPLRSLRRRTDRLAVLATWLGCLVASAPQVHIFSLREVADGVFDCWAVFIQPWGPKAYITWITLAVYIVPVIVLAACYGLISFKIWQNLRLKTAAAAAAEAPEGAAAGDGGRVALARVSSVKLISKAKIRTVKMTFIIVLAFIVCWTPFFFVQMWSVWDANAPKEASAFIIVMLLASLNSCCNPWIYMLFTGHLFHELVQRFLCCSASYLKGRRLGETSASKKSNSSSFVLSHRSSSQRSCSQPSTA
Test: Calcium flux assay (FLIPR), agonist mode, CHO cells expressing human OTR
Details: CHO cells stably expressing human OTR; calcium flux; read-out: hOT EC50
Positions of bridges follow the written chain, without caps; N, C: chain ends. Non-standard residues stand in square brackets, D forms with d. Residues, ends and D or L forms follow the SMILES beside them. Phe(4-NH2) = Nc1ccc(C[C@H](N)C(=O)O)cc1; Cha = N[C@@H](CC1CCCCC1)C(=O)O; Tle = CC(C)(C)[C@H](N)C(=O)O; Orn = NCCC[C@H](N)C(=O)O; Sar = CNCC(=O)O
measured_metric: log10 of EC50 (log10 of the value in nM)

# compound, observed
records = [
    ("CC[C@H](C)[C@@H]1NC(=O)[C@H](Cc2ccc(O)cc2)NC(=O)CNC(=O)CC[C@@H](C(=O)N2CCC[C@H]2C(=O)N[C@@H](CC(C)C)C(=O)NCC(N)=O)NC(=O)[C@H](CC(N)=O)NC(=O)[C@H](CCCN)NC1=O [Example 20] (GYI[Orn]NEPLG-NH2; lactam N-6)", 1.60),
    ("CC[C@H](C)[C@@H]1NC(=O)[C@H](Cc2ccc(O)cc2)NC(=O)[C@H](C)NC(=O)CC[C@@H](C(=O)N2CCC[C@H]2C(=O)N[C@@H](CC(C)C)C(=O)NCC(N)=O)NC(=O)[C@H](CC(N)=O)NC(=O)[C@H](CCC(N)=O)NC1=O [Example 3] (AYIQNEPLG-NH2; lactam N-6)", 0.60),
    ("CC[C@H](C)[C@@H]1NC(=O)[C@H](Cc2ccc(N)cc2)NC(=O)CNC(=O)CC[C@@H](C(=O)N(C)CC(=O)N[C@@H](CC(C)C)C(=O)NCC(N)=O)NC(=O)[C@H](CC(N)=O)NC(=O)[C@H](CCC(N)=O)NC1=O [Example 2] (G[Phe(4-NH2)]IQNE[Sar]LG-NH2; lactam N-6)", 0.95),
    ("CC[C@H](C)[C@@H]1NC(=O)[C@H](Cc2ccc(O)cc2)NC(=O)CNC(=O)CC[C@@H](C(=O)N(C)CC(=O)N[C@H](C(=O)NCC(N)=O)C(C)(C)C)NC(=O)[C@H](CC(N)=O)NC(=O)[C@H](CCC(N)=O)NC1=O [Example 44] (GYIQNE[Sar][Tle]G-NH2; lactam N-6)", -0.30),
    ("CC[C@H](C)[C@@H]1NC(=O)[C@H](Cc2ccc(O)cc2)NC(=O)CNC(=O)CC[C@@H](C(=O)N(C)CC(=O)N[C@@H](Cc2ccccc2)C(=O)NCC(N)=O)NC(=O)[C@H](CC(N)=O)NC(=O)[C@H](CCC(N)=O)NC1=O [Example 27] (GYIQNE[Sar]FG-NH2; lactam N-6)", 0.70),
    ("CC[C@H](C)[C@@H]1NC(=O)[C@H](Cc2ccc(O)cc2)NC(=O)CNC(=O)CC[C@@H](C(=O)N(C)CC(=O)N[C@@H](CC2CCCCC2)C(=O)NCC(N)=O)NC(=O)[C@H](CC(N)=O)NC(=O)[C@H](CCC(N)=O)NC1=O [Example 39] (GYIQNE[Sar][Cha]G-NH2; lactam N-6)", -0.40),
    ("CC[C@H](C)[C@@H]1NC(=O)[C@H](Cc2ccc(O)cc2)NC(=O)CNC(=O)CC[C@@H](C(=O)N2CCC[C@H]2C(=O)N[C@@H](Cc2ccc(N)cc2)C(=O)NCC(N)=O)NC(=O)[C@H](CC(N)=O)NC(=O)[C@H](CCC(N)=O)NC1=O [Example 11] (GYIQNEP[Phe(4-NH2)]G-NH2; lactam N-6)", 1.04),
]
